Hello, the source for this data is patent US20170001990A1, in case you need it.

Target: Human recombinant carboxy-terminal his-tagged LDHA (amino acids 2-332) (Homo sapiens)
Experiment: LDHA enzyme inhibition assay (NADH fluorescence)
Conditions: LDHA IC50 (μM), 1 nM LDHA, NADH and pyruvate, stereochemistry of tested sample given
Property name: IC50 (µM)

CC1(COc2cccc(C3(c4ccsc4)CC(=O)C(Sc4ccccc4Cl)C(=O)N3)n2)CC1 (single isomer, unassigned) [Example 182]	0.056
O=C1CC(c2ccsc2)(c2cccc(Oc3ccc4ncccc4c3)n2)NC(=O)C1Sc1ccccc1Cl (single isomer, unassigned) [Example 117]	0.076
O=C1CC(c2ccsc2)(c2cccc(NCCC3CC3)n2)NC(=O)C1Sc1ccccc1Cl (stereo not drawn) [Example 174]	0.068

###

Molecular target: Human recombinant carboxy-terminal his-tagged LDHA (amino acids 2-332) (Homo sapiens, UniProt P00338)
Test: LDHA enzyme inhibition assay (NADH fluorescence)
Conditions: LDHA IC50 (μM), 1 nM LDHA, NADH and pyruvate, stereochemistry of tested sample given
Property name: IC50 (µM)

Some compounds with recorded IC50:
O=C1CC(c2ccsc2)(c2cccc(NCc3ccc(F)cc3)n2)NC(=O)C1Sc1ccccc1Cl (single isomer, unassigned) [Example 292]	0.037
COCC(C)Oc1cccc(C2(c3ccsc3)CC(=O)C(Sc3ccccc3Cl)C(=O)N2)n1 (stereo not shown) [Example 246]	0.01
O=C1CC(c2ccsc2)(c2cccc(OCCCC(F)(F)F)n2)NC(=O)C1Sc1ccccc1Cl (single isomer, unassigned) [Example 148]	0.014
O=C1CC(c2ccsc2)(c2cccc(OCc3ccncc3)n2)NC(=O)C1Sc1ccccc1Cl (stereo not shown) [Example 186]	0.021

(P) O=C1CC(c2ccsc2)(c2cccc(OCC3CCCO3)n2)NC(=O)C1Sc1ccccc1Cl (single isomer, unassigned) [Example 221]
(Q) COc1ccc(Oc2cccc(C3(c4ccsc4)CC(=O)C(Sc4ccccc4Cl)C(=O)N3)n2)cc1 (stereo not shown) [Example 59]
(R) CC(Oc1cccc(C2(c3ccsc3)CC(=O)C(Sc3ccccc3Cl)C(=O)N2)n1)C(F)(F)F (stereo not shown) [Example 231]
**Q:** Please produce an ascending ranking of these compounds based on IC50. Please respond with the labels ordered as the question requires.
**A:** R, Q, P
(R: 0.009 µM, Q: 0.056 µM, P: 0.32 µM)

###

Molecular target: Human recombinant carboxy-terminal his-tagged LDHA (amino acids 2-332) (Homo sapiens)
Assay: LDHA enzyme inhibition assay (NADH fluorescence)
Details: LDHA IC50 (μM), 1 nM LDHA, NADH and pyruvate, stereochemistry of tested sample given
Property name: IC50 (µM)

Some compounds with recorded IC50:
O=C1CC(c2ccsc2)(c2cccc(Oc3ccc(F)c(C(F)(F)F)c3)n2)NC(=O)C1Sc1ccccc1Cl (stereo not drawn) [Example 150]	0.019
O=C1CC(c2ccsc2)(c2cccc(Oc3cccc4c3NCCC4)n2)NC(=O)C1Sc1ccccc1Cl (stereo not drawn) [Example 111]	0.012
COc1ccc(N(C)c2cccc(C3(c4ccsc4)CC(=O)C(Sc4ccccc4Cl)C(=O)N3)n2)cc1 (stereo not drawn)	0.072
O=C1CC(c2ccsc2)(c2cccc(OCCCC(F)(F)F)n2)NC(=O)C1Sc1ccccc1Cl (single isomer, unassigned) [Example 142]	0.031
CC(Oc1cccc(C2(c3ccsc3)CC(=O)C(Sc3ccccc3Cl)C(=O)N2)n1)C1CC1 (single isomer, unassigned) [Example 184]	0.002
CN(c1ccc(F)cc1)c1cccc(C2(c3ccsc3)CC(=O)C(Sc3ccccc3Cl)C(=O)N2)n1 (single isomer, unassigned) [Example 262]	0.104
CC(C)c1cc(F)ccc1Oc1cccc([C@@]2(c3ccsc3)CC(=O)C(Sc3ccccc3Cl)C(=O)N2)n1 (stereo partly drawn)	0.197
Cn1nncc1-c1ccccc1Oc1cccc(C2(c3ccsc3)CC(=O)C(Sc3ccccc3Cl)C(=O)N2)n1 (stereo not drawn)	0.119

(a) CC(C)(O)CCOc1cccc(C2(c3ccsc3)CC(=O)C(Sc3ccccc3Cl)C(=O)N2)n1 (single isomer, unassigned) [Example 170]
(b) O=C1CC(c2ccsc2)(c2cccc(OCc3ccc(F)cc3)n2)NC(=O)C1Sc1ccccc1Cl (single isomer, unassigned) [Example 289]
**Q:** // task: argmin of IC50 over [ a , b ] // caller expects the label of the chosen entry
**A:** b
(b: 0.022 µM, a: 0.145 µM)

(I) O=C1CC(c2ccsc2)(c2cccc(Oc3ccc(F)c(Br)c3)n2)NC(=O)C1Sc1ccccc1Cl (single isomer, unassigned) [Example 149]
(II) Cn1ccnc1Nc1cccc(C2(c3ccsc3)CC(=O)C(Sc3ccccc3Cl)C(=O)N2)n1 (stereo not drawn)
**Q:** // task: argmin of IC50 over [ I , II ] // caller expects the label of the chosen entry
**A:** I
(I: 0.069 µM, II: 0.337 µM)

###

Target: Human recombinant carboxy-terminal his-tagged LDHA (amino acids 2-332) (Homo sapiens, UniProt P00338)
Assay: LDHA enzyme inhibition assay (NADH fluorescence)
Conditions: LDHA IC50 (μM), 1 nM LDHA, NADH and pyruvate, stereochemistry of tested sample given
Property name: IC50 (µM)

CC(C)(O)CCOc1cccc(C2(c3ccsc3)CC(=O)C(Sc3ccccc3Cl)C(=O)N2)n1 (single isomer, unassigned) [Example 145]	0.088

(1) CCOc1cccc(C2(c3ccsc3)CC(=O)C(Sc3ccccc3Cl)C(=O)N2)n1 (stereo not drawn)
(2) CN(c1ccc(F)cc1)c1cccc(C2(c3ccsc3)CC(=O)C(Sc3ccccc3Cl)C(=O)N2)n1 (single isomer, unassigned) [Example 265]
(3) O=C1CC(c2ccsc2)(c2cccc(OCC3CCCC3)n2)NC(=O)C1Sc1ccccc1Cl (single isomer, unassigned) [Example 252]
(4) O=C1CC(c2ccsc2)(c2cccc(-c3ccncc3)n2)NC(=O)C1Sc1ccccc1Cl (stereo not drawn)
(5) O=C1CC(c2ccsc2)(c2cccc(OCC(F)F)n2)NC(=O)C1Sc1ccccc1Cl (single isomer, unassigned) [Example 254]
**Q:** Arrange the 5 compounds from largest to smallest IC50. Please respond with the labels ordered as the question requires.
**A:** 3, 5, 2, 1, 4
(3: 0.079 µM, 5: 0.047 µM, 2: 0.022 µM, 1: 0.014 µM, 4: 0.006 µM)

###

Biological target: Human recombinant carboxy-terminal his-tagged LDHA (amino acids 2-332) (Homo sapiens, UniProt P00338)
Assay: LDHA enzyme inhibition assay (NADH fluorescence)
Details: LDHA IC50 (μM), 1 nM LDHA, NADH and pyruvate, stereochemistry of tested sample given
Property name: IC50 (µM)

Cc1cc(Nc2cccc(C3(c4ccsc4)CC(=O)C(Sc4ccccc4Cl)C(=O)N3)n2)n(C)n1 (stereo not shown) [Example 264]	0.077
O=C1CC(c2ccsc2)(c2cccc(OCCC3CCC3)n2)NC(=O)C1Sc1ccccc1Cl (single isomer, unassigned) [Example 141]	0.003
Cc1cc(Oc2cccc(C3(c4ccsc4)CC(=O)C(Sc4ccccc4Cl)C(=O)N3)n2)ccc1F (stereo not shown) [Example 51]	0.149
O=C1CC(c2ccsc2)(c2cccc(Oc3ccc(F)nc3Cl)n2)NC(=O)C1Sc1ccccc1Cl (stereo not shown) [Example 324]	0.084
O=C1CC(c2ccsc2)(c2cccc(Nc3ccc(F)cc3)n2)NC(=O)C1Oc1ccccc1Cl (stereo not shown) [Example 295]	0.081

(A) O=C1C[C@](c2ccsc2)(c2cccc(Oc3ccc(Br)cc3Cl)n2)NC(=O)C1Sc1ccccc1Cl (stereo partly shown) [Example 327]
(B) O=C1CC(c2ccsc2)(c2ccc(N3CCOCC3)c(F)c2)NC(=O)C1Sc1ccccc1Cl (stereo not shown) [Example 328]
**Q:** // task: argmin of IC50 over [ A , B ] // caller expects the label of the chosen entry
**A:** A
(A: 0.035 µM, B: 0.054 µM)

###

Molecular target: Human recombinant carboxy-terminal his-tagged LDHA (amino acids 2-332) (Homo sapiens)
Assay: LDHA enzyme inhibition assay (NADH fluorescence)
Conditions: LDHA IC50 (μM), 1 nM LDHA, NADH and pyruvate, stereochemistry of tested sample given
Property name: IC50 (µM)

O=C1CC(c2ccsc2)(c2cccc(Oc3cccc(C(F)F)c3)n2)NC(=O)C1Sc1ccccc1Cl (single isomer, unassigned) [Example 127]	0.008
O=C1CC(c2ccsc2)(c2cccc(OCC3CCCO3)n2)NC(=O)C1Sc1ccccc1Cl (single isomer, unassigned) [Example 195]	0.143
CC(Oc1cccc(C2(c3ccsc3)CC(=O)C(Sc3ccccc3Cl)C(=O)N2)n1)c1ccc(F)cc1 (stereo not drawn) [Example 301]	0.092
O=C1CCC(COc2cccc(C3(c4ccsc4)CC(=O)C(Sc4ccccc4Cl)C(=O)N3)n2)O1 (single isomer, unassigned) [Example 193]	0.059
O=C1CC(c2ccsc2)(c2cccc(OCC(F)F)n2)NC(=O)C1Sc1ccccc1Cl (single isomer, unassigned) [Example 245]	0.018

(I) O=C1CC(c2ccc(N3CCC(F)CC3)cc2)(c2ccsc2)NC(=O)C1Sc1ccccc1Cl (stereo not drawn) [Example 107]
(II) O=C1CC(c2ccsc2)(c2cccc(OCC3CCOCC3)n2)NC(=O)C1Sc1ccccc1Cl (single isomer, unassigned) [Example 163]
**Q:** // task: argmin of IC50 over [ I , II ] // caller expects the label of the chosen entry
**A:** I

(A) O=C1CC(c2ccsc2)(c2cccc(Oc3ccc(F)c(Br)c3)n2)NC(=O)C1Sc1ccccc1Cl (single isomer, unassigned) [Example 122]
(B) O=C1CC(c2ccsc2)(c2cccc(Oc3cccc4ncccc34)n2)NC(=O)C1Sc1ccccc1Cl (single isomer, unassigned) [Example 91]
**Q:** Of the two listed items, which has the higher IC50? First: A Second: B // caller expects the label of the chosen entry
**A:** A
(A: 0.022 µM, B: 0.011 µM)

(1) O=C1CC(c2ccsc2)(c2cccc(Cc3ccccc3)n2)NC(=O)C1Sc1ccccc1Cl (single isomer, unassigned) [Example 180]
(2) O=C1CC(c2ccsc2)(c2cccc(N3CC(C4CCOCC4)C3)n2)NC(=O)C1Sc1ccccc1Cl (stereo not drawn) [Example 232]
**Q:** Of the two listed items, which has the higher IC50? First: 1 Second: 2 // caller expects the label of the chosen entry
**A:** 2
(2: 0.009 µM, 1: 0.002 µM)
